- System: MS2 coat protein
- TEST: apparent KD of MS2 coat protein; designed switch direction (-1 OFF switch, 1 ON switch): 1; higher = weaker reporter binding
- CONDITION_NOTES: input ligand: microRNA oligo, concentration not stated
Collected apparent KD of MS2 coat protein values appear next to each entry.

{"SEQUENCE_DATA": "AUUAUAAAUGCAGGAUAUGAUUAACAUGAGGAUCACCCAUGUGGUGUUGUGAGUAAGGAGAGUGAUCAGAAGGGCAUUUUUUUU [JMF's solution 24] (Eterna round: R96, puzzle: Same State NG 2)", "VALUE_UNITS": "nM", "apparent KD of MS2 coat protein": 343}
{"SEQUENCE_DATA": "GUGGUUCUCGUAGGAUAUGUAGGAUAUGCCUACAUGAGGAUCACCCAUGUUCGCAUGGCAGAAGGACAGAAGGACGAUCACUAA [pwkr ssNG2 2FMN + 1F5.15] (Eterna round: R96, puzzle: Same State NG 2)", "VALUE_UNITS": "nM", "apparent KD of MS2 coat protein": 11.7}
{"SEQUENCE_DATA": "AGAUCAUGACGAGGAUAUGGUACAUGAGGAUCACCCAUGUAUGUACCACGACGCGUACGUCGAAUCCAGAAGGCGUCGUGAUCA [Mat - Same State NG 2 - JL mod - D16] (Eterna round: R96, puzzle: Same State NG 2)", "VALUE_UNITS": "nM", "apparent KD of MS2 coat protein": 66.1}
{"SEQUENCE_DATA": "UCGUCGACACAAAUUCGACAACAUGAGGAUCACCCAUGUCCACAGGAUAUCGGCAGCUUAUGCUCCGAGAAGGGUGGUUAGAUU [Beage Mod] (Eterna round: R96, puzzle: Same State NG 3)", "VALUE_UNITS": "nM", "apparent KD of MS2 coat protein": 664}
{"SEQUENCE_DATA": "GCUCGAUGAGCGUUUUACAUGAGGAUCACCCAUGUUCGUGGGCAGGAUAUUUACGUGCGGAGUGUAGAGAAGGGCCCAUCGAGC [SameState NG3 #68] (Eterna round: R96, puzzle: Same State NG 3)", "VALUE_UNITS": "nM", "apparent KD of MS2 coat protein": 391}
{"SEQUENCE_DATA": "UAACAGUACAAUUUAGAUCUACAUGAGGAUCACCCAUGUACUGAGGAUAUCAGCUCGUUUAGAGCUGAGAAGGCAGAAGAACUA [SSNG3/11-A3] (Eterna round: R96, puzzle: Same State NG 3)", "VALUE_UNITS": "nM", "apparent KD of MS2 coat protein": 154}
{"SEQUENCE_DATA": "GGGAGAGGCGCAGGAUAUGGUGAGGAUCACCCACUAGAAGGGUGCACAUGAGAAUCGGACAUGAGGAUCACCCAUGUUUGGCGC (Eterna round: R96, puzzle: Same State NG 1)", "VALUE_UNITS": "nM", "apparent KD of MS2 coat protein": 121}
{"SEQUENCE_DATA": "UGUACCUUCACAGGAUAUCAUGCGAAAAUUGCGUGAGAAGGGUGAAUACUGUCUUUCUAAGAGUACAUGAGGAUCACCCAUGUA [SameState NG1 #60] (Eterna round: R96, puzzle: Same State NG 1)", "VALUE_UNITS": "nM", "apparent KD of MS2 coat protein": 56.1}
